- Test system: mice
- procedure_text: Kidney Toxicity Determined by Blood Examination (1)
- Type: in vivo
- cond: mouse serum, 80 mg/kg
reported_property: Creatinine (mg/dL)
Response body: numeric value in mg/dL, unit text excluded.

Given the entry CSCCc1nc2c3nc(C(=O)O)cc(C(=O)O)c3c3[nH]c(C(=O)O)cc3c2o1 [2-Methylthioethyl OPQ, 2-methylthioethyl OPQ (R= CH2 CH2 SCH3)] , what Creatinine was observed with mice?
0.68

Could you share what Creatinine was measured for O=C(O)c1cc(C(=O)O)c2c(n1)c1nc(Cc3ccccc3)oc1c1cc(C(=O)O)[nH]c12 [Benzyl OPQ, benzyl OPQ] , tested on mice?
0.68

# get_value(readout= Creatinine, system= mice) for CCC(C)c1nc2c3nc(C(=O)O)cc(C(=O)O)c3c3[nH]c(C(=O)O)cc3c2o1 (stereo not shown) [1-Methylpropyl OPQ, 1-methylpropyl OPQ (R=CH(CH3)CH2 CH3)]
0.78

Please tell me: Creatinine of O=C(O)c1cc(C(=O)O)c2c(n1)c1ncoc1c1cc(C(=O)O)[nH]c12 [OPQ] , system mice?
0.80

====

Recorded Glucose, one value per entry.
- Test system: mice
- procedure_text: Kidney Toxicity Determined by Blood Examination (1)
- Type: in vivo
- cond: mouse serum, 200 mg/kg
Quote the value and follow it with the unit of measurement.

Worked examples, 4 compounds total:
# compound, measured_target, Glucose
measured = [
    ("CSCCc1nc2c3nc(C(=O)O)cc(C(=O)O)c3c3[nH]c(C(=O)O)cc3c2o1 [2-Methylthioethyl OPQ, 2-methylthioethyl OPQ (R= CH2 CH2 SCH3)]", "mice", "72 ± 16 mg/dL"),
    ("O=C(O)c1cc(C(=O)O)c2c(n1)c1nc(Cc3ccccc3)oc1c1cc(C(=O)O)[nH]c12 [Benzyl OPQ, benzyl OPQ]", "mice", "84 ± 18 mg/dL"),
    ("C=CCOC(=O)c1cc(C(=O)OCC=C)c2c(n1)C(=O)C(=O)c1cc(C(=O)OCC=C)[nH]c1-2 [PQQ triallyl ester]", "mice", "76 ± 6 mg/dL"),
    ("CCC(C)c1nc2c3nc(C(=O)O)cc(C(=O)O)c3c3[nH]c(C(=O)O)cc3c2o1 (centres unmarked) [1-Methylpropyl OPQ, 1-methylpropyl OPQ (R=CH(CH3)CH2 CH3)]", "mice", "66 ± 11 mg/dL"),
]

Tell me the measured Glucose of O=C(O)c1cc(C(=O)O)c2c(n1)c1ncoc1c1cc(C(=O)O)[nH]c12 [OPQ] , please.
85 ± 24 mg/dL

====

Let's look at some compounds and their measured pIC50.
- procedure_text: Superoxide scavenging activity (hypoxanthine-xanthine oxidase, DMPO spin trapping, ESR)
- Assay type: biochemical
- cond: Example 2, Table 7; pH 7.3; read-out: O2^- scavenging activity IC50
- Source text: Activity of PQQ esters to scavenge superoxide (O2^-) produced in the system of hypoxanthinexanthine oxidase was examined by spin trapping method [using 5,5-dimethyl-l-pyrroline-N-oxide (hereinafter referred to as "DMPO") as a spin trapping agent] where electron spin resonance (hereinafter referred to as "ESR") was used. Hypoxanthine+2O2 →2O2^- +uric acid (xanthine oxidase) […]
Expect pIC50 as a plain number equal to -log10 of the molar concentration.

Query (compound): CC(C)c1nc2c3nc(C(=O)O)cc(C(=O)O)c3c3[nH]c(C(=O)O)cc3c2o1 [1-Methylethyl OPQ, 1-methylethyl OPQ (R=CH(CH3)2)] ; field requested: pIC50
5.50

Given the entry CCC(C)c1nc2c3nc(C(=O)O)cc(C(=O)O)c3c3[nH]c(C(=O)O)cc3c2o1 (stereo not drawn) [1-Methylpropyl OPQ, 1-methylpropyl OPQ (R=CH(CH3)CH2 CH3)] , report its measured pIC50.
5.45

Give its pIC50 value. Item: NC(=O)CCc1nc2c3nc(C(=O)O)cc(C(=O)O)c3c3[nH]c(C(=O)O)cc3c2o1 [2-Carbamoylethyl OPQ, 2-carbamoylethyl OPQ (R=CH2 CH2 CONH2)]
5.49

I have this compound here, `O=C(O)c1cc(C(=O)O)c2c(n1)c1nc(Cc3ccccc3)oc1c1cc(C(=O)O)[nH]c12` , and I need its recorded pIC50.
5.52

Reported pIC50, compound O=C(O)c1cc(C(=O)O)c2c(n1)c1nc(Cc3ccc(O)cc3)oc1c1cc(C(=O)O)[nH]c12 [4-Hydroxyphenylmethyl OPQ, 4-hydroxyphenylmethyl OPQ] : ____
5.39

Using the record for CC(C)Cc1nc2c3nc(C(=O)O)cc(C(=O)O)c3c3[nH]c(C(=O)O)cc3c2o1 [2-Methylpropyl OPQ, 2-methylpropyl OPQ (R=CH2 CH(CH3)2)] , report its pIC50.
5.31
